# Assay Info: yeast display, Sf9 membrane polyspecificity reagent, FACS + sequencing; frameworks hold sequencing errors
Measured Endpoint: polyreactivity (PSR sort gate)

[[record]]
primary_sequence = "QVQLVESGGGLVQAGGSLRLSCAASGRIFSPYVMGWYRQAPGKERELVAAITGSGGSTYYADSVKGRFTISRDNAKKTVYLQMNSLKPEDTAVYYCAVVSRTTAMDYRGQGTQVTVSS"
reported_value = "high polyreactivity"

[[record]]
primary_sequence = "QVQLVESGGGLVQAGGSLRLSCAASGYIFTPYAMGWYRQAPGKERELVAAITGSGSSTYYADSVKGRFTISRDNAKNTVYLQMNSLKPEDTAVYYCAADSYGFYGYYYYELEYWGQGTQVTVSS"
reported_value = "low polyreactivity"

[[record]]
primary_sequence = "QVQLVDSGGGLVQAGGSLRLSCADSGSIFSRNTMGWYRQAPGKERELVAGISSSGSRTYYADSVKGRFTISRDNAKNTVYLQMNSLKPEDTAFYYCAAGSQRRYYHTNCDSFNYSGQGTQVTVSS"
reported_value = "low polyreactivity"

[[record]]
primary_sequence = "QVQLVESGGGLVQAGGSLRLSCAASGLIFKYNVMGWYRQAPGKERELVAAITKRGGSTYYADSVKGRFTISRDNAKNTVYLQMNSLKPEDTAVYYCAARPVNTVRPFDYWGQGTQVTVSS"
reported_value = "high polyreactivity"

[[record]]
primary_sequence = "QVQLVESGGGLVQAGGSLRLSCAASGITFTSYVMGWYRQAPGKERELVAAIRWSGGRTYYADSVKGRFTISRDNAKITVYLQMNSLKPEDTAVYYCNRVTRSHVDYWGQGTQVTLSS"
reported_value = "high polyreactivity"

[[record]]
primary_sequence = "QVQLVESGGGLVQAGGSLRLSCAASGSTFQWYAIGWYRQAPGKERELVATISYTGGSRTYYADSVKGRFTISRDNAKNTVYLQMNILKPEDTAVYYCAAESNQLFYFRRFDYWGQGTQVTVSS"
reported_value = "low polyreactivity"

[[record]]
primary_sequence = "QVQLVESGGGLVQAGGSLRLSCAASGSTFVYNAMGWSRQAPGKERELVAVITYRGGRTYYADSVKGRFTISRDNAKNTVYLQINSLKPEDTAVYYCAKRVYGSKVRGYDYWGQGTQVTVSS"
reported_value = "high polyreactivity"

[[record]]
primary_sequence = "QVQLVESGRGLVQAGGSLRLSCAASGSIFIYYAMGWYRQAPGKERELVAAISFSGARTYYADSVKGRFTISRDNAKNTVYLQMNSLKPEDTAVYYCNGARYSRRWPSEYWGQGTQVTVSS"
reported_value = "low polyreactivity"


###

# Assay Info: yeast display, Sf9 membrane polyspecificity reagent, FACS + sequencing; frameworks hold sequencing errors
Measured Endpoint: polyreactivity (PSR sort gate)

[[record]]
primary_sequence = "QVQLVESGGGLVQAGGSLRLSCAASGSTFTGYAMGWYRQAPGKERELVAAISISGGRTFYADSVKGRFTISRDNAKNTVYLQKNSLKPEDTAVSYCAASLRGSKYSFDYWGQGTQVTVSS"
measured_endpoint = "polyreactivity (PSR sort gate)"
reported_value = "high polyreactivity"

[[record]]
primary_sequence = "QVQLVESGGGLVQAGGSLRLSCAASGSIFAYYTMGWSRQAPGKERELVATISSRGGSTNYADSVKGRFTISRDNAKNTVYLQMNSLKPEDTAVYYCNTAGAADRRRAYDHDYWGQGTQVTVSS"
measured_endpoint = "polyreactivity (PSR sort gate)"
reported_value = "high polyreactivity"


###

# Assay Info: yeast display, Sf9 membrane polyspecificity reagent, FACS + sequencing; frameworks hold sequencing errors
Measured Endpoint: polyreactivity (PSR sort gate)

[[record]]
primary_sequence = "QVQLVESGGGLVQAGGSLRLSCAASGRIFRRNAMGWYRQAPGKERELVAAITSSGGNTYYADSVKGRFTISRDNAKNTVYLQMNSLKPEDTAVYYCAAELRPYITYDGPRKKFYYWGQGTQVTVSS"
reported_value = "high polyreactivity"

[[record]]
primary_sequence = "QVQLVESGGGLVQAGGSLRLSCAASGSTFAYNAMGWYRQAPGKERELVAAISWSGGTTYYADSVKGRFTISRDNAKNTVYLQMNSLKPEDTAVYYCAADVYLNRRQRMYYWGQGTQVTVSS"
reported_value = "high polyreactivity"


###

# Assay Info: yeast display, Sf9 membrane polyspecificity reagent, FACS + sequencing; frameworks hold sequencing errors
Measured Endpoint: polyreactivity (PSR sort gate)

[[record]]
primary_sequence = "QGQLVESGGGLVQAGGSLRLRCAASGFTFAVNTMGWYRQAPVKERELVAAITASGGSTHYADSVKGRFTISRDNAKNNVYLQMNSLKPEDTAVYYCAARPRLYQYYYWGQGTQVTVSS"
measured_endpoint = "polyreactivity (PSR sort gate)"
reported_value = "high polyreactivity"

[[record]]
primary_sequence = "QVQLVESGGGLVQAGGSLRLSCAASGLTFFPNAMGWYRQAPGKERELVAAISNNGGRTYYADSVKGRFTISRDNAKNTVYLQMNSLKPEDTAVYYCAKYLSPGERHSYDYWGQGTQVTVSS"
measured_endpoint = "polyreactivity (PSR sort gate)"
reported_value = "high polyreactivity"

[[record]]
primary_sequence = "QVQLVESGGGLVQAGGSLRLSCAASGSTFNWDAMGWYRQAPGQERELVAAISKSGGTTYYADSVKGRFTISRDNAKNTVYLQMNSLKPEDTAVYYCAAVRRYHSYPDGGYWGQGTQVTVSS"
measured_endpoint = "polyreactivity (PSR sort gate)"
reported_value = "high polyreactivity"


###

# Assay Info: yeast display, Sf9 membrane polyspecificity reagent, FACS + sequencing; frameworks hold sequencing errors
Measured Endpoint: polyreactivity (PSR sort gate)

[[record]]
primary_sequence = "QVQLVESGGGLVQAGGSLRLSCAASGFTFRSYAMGWYRQAPGKERELVASISWSGTSTYYADSVKGRFTISRDNAKNTVYLQMNSLKPEDTAVYYCNKYPSFYGAGYYWGQGTQVTVSS"
reported_value = "high polyreactivity"

[[record]]
primary_sequence = "QVQLLESGGGLVQAGGSHRLSCAASGIIFQWNVMGWYRQAPGKERELVASITSGSSTHYADSVKVRFTISRDNAKNSVYLQMNSLKPEDTAVYYFAADGALRAEYDVEIEYDYWGQGTQVNVSS"
reported_value = "low polyreactivity"

[[record]]
primary_sequence = "QVQLVESGGGLVQAGGRLRLRCAASGSIFSPNAMGWYRQAPGKERELVATISFSGGRTYYADSVKGRFTISRDNAKNSVYLQMNSLKPEDTAVYYCAKAYYYTDMDYWGQGTQVTVSS"
reported_value = "low polyreactivity"

[[record]]
primary_sequence = "QVQLVESGGGLVQAGGSLRLSCAASGFTFEKYVMGWYRQAPGKDREFVAAITRSGGRTYYADSVKGRFTISRDNAKNTVSLQMNSLKPEDTAVYYCAAAFSRSDTGGGSSGQGTQVTVSS"
reported_value = "high polyreactivity"

[[record]]
primary_sequence = "QVQLVESVGGLVQAGGRLRLSCAASGRIFSFYAMGWYRPAPGKEREFVAAITYSGGSSYYADSVKGRFTNSRDNAKKTVYLQMNSLKPEDTAVYYCAARYRYITKYDYWGQGTQVTVSS"
reported_value = "high polyreactivity"

[[record]]
primary_sequence = "QVQLVESGGGLVQAGGSLRLSCAASGSIFKYYAMGWYRQAPGKEREFVAAITRSGGSTYYADSVKGRFTISRDNAKNTVYLQMNSLKPEDTAVYYCAARSYARPGGSRFDYWGQGTQVTVSS"
reported_value = "high polyreactivity"

[[record]]
primary_sequence = "QVQLVESGGGLVQAGGSLRLSCAASGFIFNYNTMGWYRQAPGKERELVAAISFSGGSTYYADSVKGRFTISRDNAKNTVYLQMNSLKPEDTAVYYCATRNGRQYSVSYRYYYWGQGTQVTVSS"
reported_value = "low polyreactivity"

[[record]]
primary_sequence = "QDQLVESGGGLVQAGGSLRLSCAASGSTFTSNAMGWYRQAPGKERELVAAISFSDASTYYADSVKGRFTISRDNAKKTVYLQMNSLKPEDTAVYYCNADYPTTAYDYCGQGTQVTVSS"
reported_value = "low polyreactivity"

[[record]]
primary_sequence = "QVQLVESGGGLVQAGGSLRLICAASGSTFHAYAMGWYRQAPGKEREMVAAISWRGGSTYYADSVKGRFTISRDNAKNTVYLQMNSLKPEDTAVYYCAASVQGLFGTSGMEGVDYWGQGTQVTVSS"
reported_value = "high polyreactivity"

[[record]]
primary_sequence = "QVQLVESGGGLVQAGGSLRLSCAASGSTFKPYTMGWYRQAPGKERELVAGISSVDSTYYADSVKGRFTISRDNAKNTVYLQMNSLKPEDTAVYYCAADTVYIFSSAINGEFGYWGQGTQVTVSS"
reported_value = "low polyreactivity"

[[record]]
primary_sequence = "QVQLVESGGGLVQAGGSLRLSCAASGLTFHTNTMGWYRQAPGKERELVAAITWRDDSTYYADSVKGRFTISRDYAMNTVYLQMNSLKPEDTAVFYCAARGGAYLWYHYDYWGQGTQVTVSS"
reported_value = "low polyreactivity"

[[record]]
primary_sequence = "QVQLVESGGGLVQAGGSLRLSCAASGRTFYVYAMGWYRQAPGKERELVAAISWSGGSTYYADSVKGRFTISRDNAKNTVYLQMNSLKPEDTAVYYCAAQTYQRHVVAYDYWGQGTQVTVSS"
reported_value = "low polyreactivity"

